assay: Solubility of Compound 1 in 19 types of solvents at room temperature; format: physicochemical; conditions: organic solvent or mixture, thermodynamic from solid; solvent N-propanol, 3000 μL, not dissolved completely at 50° C.
measure: solubility

O=C(O)[C@H]1C2CCC(CC2)[C@@H]1Nc1nc(-c2n[nH]c3ncc(F)cc23)nc(C2CC2)c1F; < 3.3 mg/mL

###

test: Solubility of Compound 1 in 19 types of solvents at room temperature; assay type: physicochemical; conditions: organic solvent or mixture, thermodynamic from solid; solvent Ethanol, 3000 μL, not dissolved completely at 50° C.
measure: solubility

O=C(O)[C@H]1C2CCC(CC2)[C@@H]1Nc1nc(-c2n[nH]c3ncc(F)cc23)nc(C2CC2)c1F [Compound 1]; < 3300 µg/mL

###

experiment: Solubility of Compound 1 in 19 types of solvents at room temperature; assay type: physicochemical; details: organic solvent or mixture, thermodynamic from solid; solvent Dichloromethane, 3000 μL, not dissolved completely at 50° C.
measure: solubility

O=C(O)[C@H]1C2CCC(CC2)[C@@H]1Nc1nc(-c2n[nH]c3ncc(F)cc23)nc(C2CC2)c1F; < 3300 µg/mL

###

assay: Solubility of Compound 1 in 19 types of solvents at room temperature; assay type: physicochemical; conditions: organic solvent or mixture, thermodynamic from solid; solvent Ethylene glycol dimethyl ether, 3000 μL, not dissolved completely at 50° C.
measure: solubility

O=C(O)[C@H]1C2CCC(CC2)[C@@H]1Nc1nc(-c2n[nH]c3ncc(F)cc23)nc(C2CC2)c1F; < 3300 µg/mL

###

test: Solubility of Compound 1 in 19 types of solvents at room temperature; type: physicochemical; settings: organic solvent or mixture, thermodynamic from solid; solvent Tetrahydrofuran, 3000 μL, not dissolved completely at 50° C.
measure: solubility

O=C(O)[C@H]1C2CCC(CC2)[C@@H]1Nc1nc(-c2n[nH]c3ncc(F)cc23)nc(C2CC2)c1F [Compound 1]; < 3300 µg/mL

###

test: Crystal form transition observed during experiment / post-treatment; assay type: physicochemical; conditions: e.g. drying under vacuum at ambient temperature
measure: Stability of the crystal form as concluded from crystal form transitions

O=C(O)[C@H]1C2CCC(CC2)[C@@H]1Nc1nc(-c2n[nH]c3ncc(F)cc23)nc(C2CC2)c1F [crystal form VIII]; high stability
O=C(O)[C@H]1C2CCC(CC2)[C@@H]1Nc1nc(-c2n[nH]c3ncc(F)cc23)nc(C2CC2)c1F [crystal form VII]; high stability
O=C(O)[C@H]1C2CCC(CC2)[C@@H]1Nc1nc(-c2n[nH]c3ncc(F)cc23)nc(C2CC2)c1F [crystal form V]; high stability

###

experiment: Solubility of Compound 1 in 19 types of solvents at room temperature; type: physicochemical; conditions: organic solvent or mixture, thermodynamic from solid; solvent N-hexane, 3000 μL, not dissolved completely at 50° C.
measure: solubility

O=C(O)[C@H]1C2CCC(CC2)[C@@H]1Nc1nc(-c2n[nH]c3ncc(F)cc23)nc(C2CC2)c1F; < 3300 µg/mL

###

test: Solubility of Compound 1 in 19 types of solvents at room temperature; assay type: physicochemical; details: organic solvent or mixture, thermodynamic from solid; solvent Methanol, 500 μL
measure: solubility

O=C(O)[C@H]1C2CCC(CC2)[C@@H]1Nc1nc(-c2n[nH]c3ncc(F)cc23)nc(C2CC2)c1F [Compound 1]; 20 to 50 mg/mL
